Measured pIC50, listed per entry.
Tested on: PC3 (prostate)
Assay: Anti-cell proliferation in tumor cells (14C-thymidine incorporation), PC3
Format: cell-based
Settings: Homo sapiens, PC-3; read-out: IC50 on cell proliferation, PC3
In textbook form, pIC50 equals minus log to base ten of the concentration in mol/L.

[
  {
    "COMPOUND": "COC(=O)c1cccc(Nc2[nH]nc3c2Cc2cc(OC)c(OC)cc2-3)c1 [Compound 11]",
    "TESTED_ON": "PC3 (prostate)",
    "pIC50": 7.85
  },
  {
    "COMPOUND": "COc1cc2c(cc1OC)-c1n[nH]c(NCc3cc(Cl)ccc3Cl)c1C2 [Compound 330]",
    "TESTED_ON": "PC3 (prostate)",
    "pIC50": 6.52
  },
  {
    "COMPOUND": "COc1cccc(Nc2[nH]nc3c2Cc2cc4c(cc2-3)OCO4)c1 [Compound 97]",
    "TESTED_ON": "PC3 (prostate)",
    "pIC50": 5.77
  },
  {
    "COMPOUND": "COc1cc2c(cc1OC)-c1n[nH]c(Nc3cccnc3)c1C2 [Compound 30]",
    "TESTED_ON": "PC3 (prostate)",
    "pIC50": 6.76
  },
  {
    "COMPOUND": "CCOc1cccc(Nc2[nH]nc3c2Cc2cc(OCC)c(OCCCO)cc2-3)c1 [Compound 388]",
    "TESTED_ON": "PC3 (prostate)",
    "pIC50": 8.40
  }
]

**Query** Which pIC50 value belongs to COc1cc2c(cc1OC)-c1n[nH]c(Nc3ccccc3F)c1C2 [Compound 12] ?
**Result** 7.89

**Query** Entry to check: COc1cc2c(cc1OC)-c1c(c(Nc3cccc(F)c3)nn1C(=O)CO)C2 [Compound 432]
**Result** 7.92

**Query** Can you handle Cc1ccc2c(c1)-c1n[nH]c(Nc3ccccc3)c1C2 [Compound 22] next?
**Result** 4.31

**Query** Same for COC(=O)c1cccc(Nc2[nH]nc3c2Cc2cc(OCCCN4CCCC4)c(OC)cc2-3)c1 [Compound 157]
**Result** 5.50

**Query** Another compound: COc1cc2c(cc1OC)-c1n[nH]c(NCc3ccccc3)c1C2 [Compound 63]
**Result** 5.21

**Query** Quick one: CCC1c2cc(OC)c(OC)cc2-c2n[nH]c(Nc3cccc(Br)c3)c21 (stereo not shown) [Compound 420]
**Result** 6.56

**Query** Let us now turn to CN1CCN(c2ccc3c(c2)Cc2c-3n[nH]c2Nc2cccc(Br)c2)CC1 [Compound 122]
**Result** 5.20

---

Target: c-Abl kinase (Abelson murine leukemia virus)
Sequence (P00521 115-385): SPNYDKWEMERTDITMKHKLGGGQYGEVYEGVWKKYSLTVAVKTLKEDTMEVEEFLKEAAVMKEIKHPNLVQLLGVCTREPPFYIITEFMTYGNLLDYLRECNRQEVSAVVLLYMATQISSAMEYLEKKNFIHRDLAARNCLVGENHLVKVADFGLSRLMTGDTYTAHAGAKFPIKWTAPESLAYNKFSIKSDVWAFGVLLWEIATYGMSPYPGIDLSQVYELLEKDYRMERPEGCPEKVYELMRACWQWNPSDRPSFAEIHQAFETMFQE
Friendly reminder: IC50 below 60 nM is class 1, at or above is class 0.

The following molecules have reported results that may help.
[
  {
    "MOL_SMILES": "COc1cccc(Nc2[nH]nc3c2Cc2cc4c(cc2-3)OCO4)c1",
    "LABEL_VALUE": "class 0"
  },
  {
    "MOL_SMILES": "COc1ccc(Nc2[nH]nc3c2Cc2ccc(C)cc2-3)cc1Cl",
    "LABEL_VALUE": "class 0"
  },
  {
    "MOL_SMILES": "COc1cccc(Nc2[nH]nc3c2Cc2cc(OC)c(OC)cc2-3)c1",
    "LABEL_VALUE": "class 1"
  }
]

Could you now consider this next molecule?
**Query** Please indicate whether the reported IC50 of `COc1cc2c(cc1OCCCN(C)C)Cc1c-2n[nH]c1Nc1cccc(F)c1` is strictly below 60 nM.
**Result** class 1

src = patent US7196110B2
